# Tested on: NCI-H23
# TEST_DETAILS: Growth inhibition of human NCI-H23 cells
# Type: functional
The following compounds are listed with their measured GI50 values.
RECORDED_ENDPOINT: GI50 (nM)

1) COc1cccc2c1C(=O)c1c(O)c3c(c(O)c1C2=O)C[C@@](O)(C(=O)CO)C[C@@H]3O[C@H]1C[C@H](N)[C@H](O)[C@H](C)O1 [DOXORUBICIN] ... 120
2) CCCCCCCC/C=C(/C)C[C@]1(C)C[C@H](C)[C@@H](CC(=O)O)OO1 ... 600
3) CCCCCCCCC/C=C(/C)C[C@]1(C)C[C@H](C)[C@@H](CC(=O)O)OO1 ... 980

###

# System: Malme-3M
# TEST_DETAILS: Growth inhibition of human Malme-3M cells
# Format: functional
RECORDED_ENDPOINT: GI50 (nM)

1. CCCCCCCC/C=C(/C)C[C@]1(C)C[C@H](C)[C@@H](CC(=O)O)OO1 ... 600
2. CCCCCCCCC/C=C(/C)C[C@]1(C)C[C@H](C)[C@@H](CC(=O)O)OO1 ... 980
3. COc1cccc2c1C(=O)c1c(O)c3c(c(O)c1C2=O)C[C@@](O)(C(=O)CO)C[C@@H]3O[C@H]1C[C@H](N)[C@H](O)[C@H](C)O1 [DOXORUBICIN] ... 120

###

# Test system: UACC-257
# TEST_DETAILS: Growth inhibition of human UACC-257 cells
# Assay type: functional
RECORDED_ENDPOINT: GI50 (nM)

1) CCCCCCCC/C=C(/C)C[C@]1(C)C[C@H](C)[C@@H](CC(=O)O)OO1 ... 600
2) CCCCCCCCC/C=C(/C)C[C@]1(C)C[C@H](C)[C@@H](CC(=O)O)OO1 ... 980
3) COc1cccc2c1C(=O)c1c(O)c3c(c(O)c1C2=O)C[C@@](O)(C(=O)CO)C[C@@H]3O[C@H]1C[C@H](N)[C@H](O)[C@H](C)O1 [DOXORUBICIN] ... 120

###

# System: SR
# TEST_DETAILS: Growth inhibition of human SR cells
# Assay type: functional
The following molecules are listed with their measured GI50 values.
RECORDED_ENDPOINT: GI50 (nM)

1. CCCCCCCCC/C=C(/C)C[C@]1(C)C[C@H](C)[C@@H](CC(=O)O)OO1 ... 980
2. COc1cccc2c1C(=O)c1c(O)c3c(c(O)c1C2=O)C[C@@](O)(C(=O)CO)C[C@@H]3O[C@H]1C[C@H](N)[C@H](O)[C@H](C)O1 ... 120
3. CCCCCCCC/C=C(/C)C[C@]1(C)C[C@H](C)[C@@H](CC(=O)O)OO1 ... 600

###

The following compounds are listed with their measured GI50 values.
# Tested on: SNB-19
# TEST_DETAILS: Growth inhibition of human SNB-19 cells
# Format: functional
RECORDED_ENDPOINT: GI50 (nM)

1. COc1cccc2c1C(=O)c1c(O)c3c(c(O)c1C2=O)C[C@@](O)(C(=O)CO)C[C@@H]3O[C@H]1C[C@H](N)[C@H](O)[C@H](C)O1 ... 120
2. CCCCCCCCC/C=C(/C)C[C@]1(C)C[C@H](C)[C@@H](CC(=O)O)OO1 ... 980
3. CCCCCCCC/C=C(/C)C[C@]1(C)C[C@H](C)[C@@H](CC(=O)O)OO1 ... 600

Where do the numbers come from? From ChEMBL document CHEMBL6083215.
